- Tested on: Klebsiella pneumoniae: Ciprofloxacin-resistant isolate, ESBL, clinical isolate (KP-3700)
- protocolNotes: MIC determination (CLSI), KP-3700
- Format: cell-based
- Procedure: The in vitro antibacterial activity of compounds described in the Examples was evaluated by minimum inhibitory concentration (MIC) testing according to Clinical and Laboratory Standards Institute (CLSI, formerly NCCLS) guidelines. See: Clinical and Laboratory Standards Institute. Methods for Dilution Antimicrobial Susceptibility Tests for Bacteria that Grow Aerobically; Approved Standard-Seventh Edition. CLSI document M7-A7 [ISBN 1-56238-587-9]. […]

[
  {
    "molecule": "CC(=O)Nc1ccc(-c2ccc(CCC(C)(C(=O)NO)S(C)(=O)=O)cc2F)cc1 (stereo not drawn) [Example 207]",
    "KP-3700 MIC": "≧64 mg/L"
  },
  {
    "molecule": "CC(CCc1ccc(-c2ccc(C#N)cn2)cc1)(C(=O)NO)S(C)(=O)=O (stereo not drawn) [Example 129]",
    "KP-3700 MIC": "≧64 mg/L"
  },
  {
    "molecule": "CC(CCc1ccc(-c2ccc(OCCO)c(C#N)c2)cc1)(C(=O)NO)S(C)(=O)=O (stereo not drawn) [Example 148]",
    "KP-3700 MIC": "≧64 mg/L"
  }
]

Taken from patent US8853258B2.
